# TEST_SYSTEM: FLuc-C-HiBiT (Photinus pyralis)
# Construct: firefly luciferase with C-terminal HiBiT tag, E. coli expressed
# Sequence (P08659 whole entry, looked up): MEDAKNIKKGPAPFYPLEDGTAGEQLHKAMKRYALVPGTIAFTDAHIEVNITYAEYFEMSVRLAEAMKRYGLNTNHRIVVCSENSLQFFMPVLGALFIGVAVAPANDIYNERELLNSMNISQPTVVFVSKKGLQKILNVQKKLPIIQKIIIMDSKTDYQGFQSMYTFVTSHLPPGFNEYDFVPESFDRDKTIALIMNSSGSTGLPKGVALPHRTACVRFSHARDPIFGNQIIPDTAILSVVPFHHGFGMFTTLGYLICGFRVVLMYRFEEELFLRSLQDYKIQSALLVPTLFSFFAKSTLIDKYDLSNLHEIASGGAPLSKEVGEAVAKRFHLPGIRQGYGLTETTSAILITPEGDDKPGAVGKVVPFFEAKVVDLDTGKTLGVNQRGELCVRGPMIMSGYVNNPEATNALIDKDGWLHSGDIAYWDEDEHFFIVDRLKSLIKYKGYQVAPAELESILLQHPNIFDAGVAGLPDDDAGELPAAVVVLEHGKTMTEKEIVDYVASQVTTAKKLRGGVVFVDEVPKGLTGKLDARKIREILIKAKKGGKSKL
# ASSAY_DETAILS: biochemical
# RUN_PARAMETERS: enzyme activity, 10 uM ATP; read-out: IC50 or SDR50 (mM) / FLuc E
# Method: The enzyme activity of FLuc-N-HiBiT, FLuc-C-HiBiT, and FLuc-C-NLuc was measured similar to P. pyralis firefly luciferase (FLuc) as previously described. […] Compounds and controls were added to each plate as described in Supplementary Data 8 with a Hornet pintool system (Wako Automation). […] Luciferin was incubated with FLuc enzyme for 5 min before FLuc activity was then measured on a ViewLux CCD imager (PerkinElmer), with exposure times up to ten seconds with medium to high gain settings. […]
Measured IC50 by item
The reply should be a number in mM, with the unit left off.

[[record]]
molecule = "Cn1ccnc1CN1CCNc2cc(Nc3ccccc3)ncc2C1"
recorded_result = 0.0161

[[record]]
molecule = "Cc1ccc(OCC(=O)Nc2cccc(C(=O)OCc3cc(=O)n4nc(C)sc4n3)c2)cc1"
recorded_result = 0.007

[[record]]
molecule = "COc1ccc(-c2noc(Nc3ccc4c(c3)OCCO4)n2)cc1"
recorded_result = 0.00157


Now for the molecule whose IC50 we want.
Prompt: # value lookup — system FLuc-C-HiBiT (Photinus pyralis), readout IC50, item Cc1ccc(CN2C(=O)OC(c3cccc(NC(=O)c4ccc(C)cc4)c3)C2C(=O)NCC(C)C)cc1 (centres unmarked)
Response: 0.00881

Origin of measurements: paper PMC12064818
